- test description: Cellular toxicity in T-lymphoblastoic cell line (CEM), cell numbers 3 days post treatment
- Format: cell-based
- conditions: human; CEM cells, 3 days; read-out: Cytotoxicity CEM Cells ID50
property measured: CC50 at 72 h (µM)
Numbers only; they are read as µM.

Nc1ccn([C@H]2CC[C@@H](CO)O2)c(=O)n1 [ddC, reference compound] :: 28
Nc1nc(=O)n([C@@H]2CC[C@H](CO)O2)cc1F [β-L-FddC] :: 67

From here, focus on the item given below.
For the compound Nc1ccn([C@@H]2CC[C@H](CO)O2)c(=O)n1 [β-L-ddC] , give its measured CC50 at 72 h value.
70
